Hey, just so you know, these numbers are from ChEMBL document CHEMBL5620353.

Measured MIC by item
Test system: Saccharomyces cerevisiae
assayProcedure: Antifungal activity against recombinant Saccharomyces cerevisiae Y2301 overexpressing ScErg11 Y140F assessed as inhibition of fungal growth incubated for 48 hrs by microbroth dilution method
Assay type: functional
Dear colleague, please return just the value in µg/mL, with no unit written.

Reference set (5 entries):
C[C@@H](c1ncncc1F)[C@](O)(Cn1cncn1)c1ccc(F)cc1F [VORICONAZOLE]: 0.031
C[C@@H](OCC#Cc1ccc(C#N)cc1)[C@](O)(Cn1cncn1)c1ccc(F)cc1F: 0.063
CC[C@@H]([C@H](C)O)n1ncn(-c2ccc(N3CCN(c4ccc(OC[C@@H]5CO[C@@](Cn6cncn6)(c6ccc(F)cc6F)C5)cc4)CC3)cc2)c1=O [POSACONAZOLE]: 2
C[C@@H](OCC#Cc1ccncc1)[C@](O)(Cn1cncn1)c1ccc(F)cc1F: 0.063
CC(=O)N1CCN(c2ccc(OCC3COC(Cn4ccnc4)(c4ccc(Cl)cc4Cl)O3)cc2)CC1 (stereo not drawn) [KETOCONAZOLE]: 2

// fetch MIC given entry `C[C@@H](OCC#Cc1ccc(F)cc1F)[C@](O)(Cn1cncn1)c1ccc(F)cc1F`
0.063

// fetch MIC given entry OC(Cn1cncn1)(Cn1cncn1)c1ccc(F)cc1F [FLUCONAZOLE]
8

// fetch MIC given entry C[C@@H](c1nc(-c2ccc(C#N)cc2)cs1)[C@](O)(Cn1cncn1)c1ccc(F)cc1F [RAVUCONAZOLE]
0.063
